- Test system: CAKI-1
- assay explanation: NCI tumour cell line growth inhibition, 48 h
The source made the active and inactive calls. No stated cut-off is given here; in the data, active = GI50 up to about 1.1 µM and inactive = higher.
Outcomes: TRUE (active), FALSE (inactive)

| molecule | class |
| --- | --- |
| COc1cccc(NC(=S)Nn2c(C)nc3ccccc3c2=O)c1 | FALSE |
| CCSc1nc(COC(=O)NC)c(COC(=O)NC)n1C | FALSE |
| CCC(C)C(C(=O)N/N=C1/SCC(=O)N1C)C(=O)N/N=C1/SCC(=O)N1C (stereo not given) | FALSE |
| CC(CSC(=N)N)C(N)=O (stereo not given) | FALSE |
| CC(=O)OCC1OC(N=[N+]=[N-])C(OC(C)=O)C(OC(C)=O)C1OC1OC(COC(C)=O)C(OC(C)=O)C(OC(C)=O)C1OC(C)=O (stereo not given) | FALSE |
| O=C(CSc1nc2ccc(I)cc2c(=O)n1Cc1ccccc1)Nc1ccc(Br)cc1 | FALSE |
| COc1ccc(/N=N/C(=O)NC(CC(C)C)C(=O)NCC(=O)O)cc1 (stereo not given) | FALSE |
| COc1ccc(OC)c(/C=C2/C(=O)N/C(=N\C(C)=O)N2C)c1 | FALSE |
| CCOC(=O)C(CC(C)C)NC(=O)C(N)Cc1ccc(N(CCCl)CCCl)cc1 (stereo not given) | FALSE |
| COc1ccccc1N1C(=O)CC(=O)N(C(=O)CCCCCCCCC(=O)N2C(=O)CC(=O)N(c3ccccc3OC)C2=S)C1=S | FALSE |
| O=C(O)CSc1cc(-c2ccccc2)nc2ccccc12 | FALSE |
| COC1CC(OC2C(C)OC(OC3C(C)OC(OC4C(O)CC(O[C@H]5CC[C@@]6(C)C(=CC[C@]7(O)[C@@H]6C[C@@H](OC(C)=O)[C@@]6(C)[C@]7(O)CC[C@@]6(O)C(C)=O)C5)OC4C)CC3OC)CC2OC)OC(C)C1O (stereo not given in full) | FALSE |
| CN1C(CC(O)c2ccccc2)CCCC1CC(O)(c1ccccc1)c1ccccc1 (stereo not given) | FALSE |
| Nc1ccc2nc(Nc3ccc(Cl)c(Cl)c3)cnc2c1 | FALSE |
| COc1ccc(C(c2ccc(OC)cc2)N2C(=O)CCC2C(=O)O)cc1 (stereo not given) | FALSE |
| Cc1cc2ncn(CC(=O)O)c2cc1C | FALSE |
| c1ccc(-c2cc(-c3ccccc3)nc(-c3ccncc3)c2)cc1 | FALSE |
| NCP(=O)(O)OCC(=O)O | FALSE |
| CNc1ncnc(Sc2nc(N)nc3[nH]cnc23)c1[N+](=O)[O-] | TRUE |
| O=C1C(=Cc2cccc(Cl)c2)N=C(c2ccccc2)N1n1c(-c2ccccc2)nc2ccccc2c1=O | FALSE |

----------
- Tested on: RXF 393
- assay explanation: NCI tumour cell line growth inhibition, 48 h
Active and inactive are the calls of the source. Cut-off read from the data, not from the text of the source: active = GI50 up to about 1.1 µM and inactive = higher.
Possible outcomes: True (active), False (inactive)

| compound | tested target | class |
| --- | --- | --- |
| CC(C)(C)C(=O)Nc1c(C=O)ccc2[nH]cnc12 | RXF 393 | False |
| Cc1cc2ncn(CC(=O)O)c2cc1C | RXF 393 | False |
| CCCCOCCOCCOC1=C(Cl)C(=O)c2c(O)ccc(O)c2C1=O | RXF 393 | True |
| Nc1n[n+]([O-])c2ccc(Cl)cc2[n+]1[O-] | RXF 393 | False |
| N#Cc1nnn(C2CCCCC2)c1O | RXF 393 | False |
| CCOP(=O)(OCC)C(c1ccc(F)cc1)N(C(=O)NC(F)(F)F)c1cccc(C(F)(F)F)c1 (stereo not given) | RXF 393 | False |
| COc1cc2ccc1OCc1cccc(n1)COc1ccc(cc1OC)/C=N\c1ccc(cc1)-c1ccc(cc1)/N=C\2 | RXF 393 | False |
| Cc1cc2c(c(C(=O)NCC(=O)N[C@@H](C)C(=O)OCc3ccccc3)c1)Oc1c(cc(C)cc1C(=O)NCC(=O)N[C@@H](C)C(=O)OCc1ccccc1)S2 | RXF 393 | False |
| O=C(N/C(=C\c1c(O)ccc2ccccc12)c1nc2ccccc2[nH]1)c1ccccc1 | RXF 393 | False |
| O=C(O)c1ccccc1/C=N\N(CCO)C1=NCCN1 | RXF 393 | False |

----------
- Tested on: SW-620
- assay explanation: NCI tumour cell line growth inhibition, 48 h
Where a name gives a salt, the structure may show the parent alone. The source made the active and inactive calls. No stated cut-off is given here; in the data, active = GI50 up to about 1.1 µM and inactive = higher.
In this section we review reported GI50 values for a set of compounds.

| compound | GI50 |
| --- | --- |
| CC(C)(C)c1cc(CCCCCCCC2(CCCCCCCc3cc(C(C)(C)C)cc(C(C)(C)C)c3)OC(COCCOCCCCCC#N)C(COCCOCCCCCC#N)O2)cc(C(C)(C)C)c1 (centres undefined) | > 100 µM (inactive) |
| CC(=O)N(C)c1ccc(Nc2cc(C)nc3ccc4nc[nH]c4c23)cc1 [ACODAZOLE HYDROCHLORIDE] | 4.88 µM (inactive) |
| Cc1nc2ccccc2c(=O)n1NC(=O)c1ccc([N+](=O)[O-])cc1 | > 100 µM (inactive) |
| O=C1NNC2(C(=O)N1)c1ccccc1-c1ccccc12 | > 10 µM (inactive) |
| COc1cc(S(=O)(=O)Nc2ccc(-c3csc(/N=C\c4ccccc4O)n3)cc2)ccc1Cl | 37.8 µM (inactive) |
| C(=C/CCCN1O[C@@H](CCCCCCCCc2cccnc2)[C@H]2CCC[C@H]21)/CCCCCCCCCc1cccnc1 | 31.3 µM (inactive) |
| CC(C)(C)n1[nH]c(=O)n(C(C)(C)C)c1=O | > 100 µM (inactive) |
| C=CCNC(=S)OCCCCCCCCCC | 18.7 µM (inactive) |
| COC(=O)CCC(=O)Nc1cc(C)ccc1C | > 100 µM (inactive) |

----------
- Test system: HCC 2998
- assay explanation: NCI tumour cell line growth inhibition, 48 h
Activity calls are given as the source filed them. No stated cut-off is given here; in the data, active = GI50 up to about 1.1 µM and inactive = higher.
readout type: GI50

| compound | tested target | result |
| --- | --- | --- |
| CCC(=O)N(c1ccccc1)C(C)CN1CCC(O)(c2cccc(C(F)(F)F)c2)CC1 (stereo unspecified) | HCC 2998 | 26.5 µM (inactive) |
| Cc1c(C#N)c(=N)oc2ccccc12 | HCC 2998 | > 100 µM (inactive) |
| C1=CC(=[N+]2N=C(c3ccccc3)CC2c2ccccc2)C=CC1=C1SC(c2ccccc2)(c2ccccc2)c2ccccc21.[O-][Cl+3]([O-])([O-])[O-] (stereo unspecified) | HCC 2998 | > 100 µM (inactive) |
| O=c1[nH]c2cccc([N+](=O)[O-])c2c(=O)n1-c1ccc(Cl)cc1 | HCC 2998 | 14 µM (inactive) |
| COc1c(O)c(OC)c2oc(-c3ccc(O)cc3)c(OC)c(=O)c2c1O | HCC 2998 | 32 µM (inactive) |
| CC(C)=CCc1c(O)ccc2ccc(=O)oc12 | HCC 2998 | 45.8 µM (inactive) |
| Cc1cccc2c1CC1(C2)Cc2c(C)cccc2C1=O (stereo unspecified) | HCC 2998 | 26.1 µM (inactive) |
| NC(=S)SC1=NC(=O)C2(NN1)c1ccccc1-c1ccccc12 | HCC 2998 | > 10 µM (inactive) |
| CCCCN(CCCC)CC(O)c1cc(-c2ccc(C(F)(F)F)cc2)nc(-c2ccc(C(F)(F)F)cc2)c1 (stereo unspecified) | HCC 2998 | 22.6 µM (inactive) |
| O=C(NC1CCCCCC1)C1C(=O)N(C2CCCCCC2)C(=O)/C1=N\O (stereo unspecified) | HCC 2998 | 19.5 µM (inactive) |
| [N-]=[N+]=Nc1ccccc1C(=O)N1C(=O)c2ccccc2C(=O)N(C(=O)c2ccccc2N=[N+]=[N-])c2ccccc21 | HCC 2998 | > 100 µM (inactive) |
| CC(C)(C)C(=O)Nc1c(C=O)ccc2[nH]cnc12 | HCC 2998 | > 100 µM (inactive) |
| COc1cc(OC)c2c(=O)cc(-c3ccc(OC)c(OC)c3OC)oc2c1 | HCC 2998 | > 100 µM (inactive) |
| CC1(c2cccs2)CC(c2cccs2)=C(C#N)C(=C(C#N)C#N)N1 (stereo unspecified) | HCC 2998 | 15.9 µM (inactive) |
| O=C(CC1C(=O)Nc2ccccc2[S+]1[O-])Nc1cc(Cl)ccc1Cl (stereo unspecified) | HCC 2998 | > 100 µM (inactive) |
| O=C1N[C@@H]2c3c(Br)sc(Br)c3C(=O)[C@@H]2N1 | HCC 2998 | 1.81 µM (inactive) |
| CN1CCc2c1nc(-c1ccccc1)c1c2N(C)CC1 | HCC 2998 | 99.3 µM (inactive) |
| O=[N+]([O-])c1cc(/C=N\NS(=O)(=O)c2ccc(Cl)cc2)c(O)c([N+](=O)[O-])c1 | HCC 2998 | 85.7 µM (inactive) |
| N#CC(CC(=O)O)=C(c1ccccc1)c1ccccc1 | HCC 2998 | > 100 µM (inactive) |
| C/C1=C\CC[C@@]2(C)O[C@@H]2C[C@@H]2[C@H](C/C(C)=C/CC1)OC(=O)C21CCN=N1 (stereo partly specified) | HCC 2998 | > 75 µM (inactive) |
| COc1cc2oc(=O)ccc2cc1CC=C(C)C | HCC 2998 | 31 µM (inactive) |

These measurements were taken from ChEMBL document CHEMBL1201862.
